B1: ZNF277 (parent)
chain: ILREELQKQRLREILEQQQQERND

- Variants of: B1
- test method notes: protein stability index of a GFP-peptide fusion (GPS, HEK-293T) (PSI 1-6); higher = more stable;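 also: lentivirally expressed fusions sorted by FACS into six bins by GFP to DsRed ratio, PSI derived from sequencing read proportions per bin multiplied by bin number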
- condition summary: c terminus: a fixed tail appended
Each entry below carries its reported protein stability index.
Enter a number only.

Consider the worked cases shown below.
Lookup: If you can, please state the reported protein stability index value of E4L .
Found: 3.05

Lookup: Given the entry N23S , report its measured protein stability index.
Found: 4.05

Lookup: Return reported protein stability index; argument: L6A
Found: 4.4

Further cases:
Lookup: I would be grateful if you could share the reported protein stability index for Q18Y .
Found: 2.9

Lookup: Quick one: protein stability index of K8I ?
Found: 3.1

Lookup: Request the reported protein stability index associated with E13T
Found: 4.58

Lookup: Name the recorded protein stability index for E16Q .
Found: 3.77

Lookup: Give its protein stability index value. Item: Q17R
Found: 3.77

Lookup: Would you kindly share the measured protein stability index for E16R ?
Found: 3.53

Lookup: Please give the measured protein stability index for this variant: E5S
Found: 3.99
